- EXPERIMENTAL_TARGET: UniProt Q9NYW2
- Sequence (Q9NYW2 whole entry): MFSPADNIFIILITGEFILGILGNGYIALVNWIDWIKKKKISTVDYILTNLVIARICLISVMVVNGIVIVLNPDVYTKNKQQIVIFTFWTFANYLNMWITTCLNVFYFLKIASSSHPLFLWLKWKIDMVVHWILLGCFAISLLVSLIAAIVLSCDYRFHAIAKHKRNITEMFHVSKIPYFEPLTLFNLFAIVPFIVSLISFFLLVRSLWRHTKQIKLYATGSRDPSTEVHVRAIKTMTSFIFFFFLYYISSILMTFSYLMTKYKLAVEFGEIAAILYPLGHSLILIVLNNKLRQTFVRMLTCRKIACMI
- TEST_DESCRIPTION: hT2R8 antagonist high-throughput FLIPR assay, stable cell line with G16g44, agonist andrographolide
- Type: cell-based
- RUN_PARAMETERS: Table A; read-out: hT2R8 IC50
- Source text: After a ligand is identified for a particular hT2R, a HEK293 cell line stably expressing both the hT2R and G16gust44 are generated, facilitating future screening assays to identify other ligands that activate the particular hT2R or which modulate (block or enhance) the activation of this hT2R by another bitter ligand such as a bitter compound contained in coffee. This avoids the need for transient transfection. […]
VALUE_KIND: pIC50
One number for each entry, as −log10 of the molar value.

COMPOUND	EXPERIMENTAL_RESULT
Cc1noc(C)c1Cn1cc(NC(=O)c2ccccc2)cn1	5.58

Batch lookup, pIC50 per entry.
1. COc1ccc(C(=O)Nc2cnn(Cc3c(C)noc3C)c2)cc1OC
2. CNc1cnn(Cc2c(C)noc2C)c1 [Example 4-63]
3. Cc1noc(C)c1Cn1cc(NC(=O)c2ccc3occc3c2)cn1
4. Cc1nc2ccc(C(=O)Nc3cnn(Cc4c(C)noc4C)c3)cc2o1
5. Cc1noc(C)c1Cn1cc(NS(=O)(=O)c2ccccc2F)cn1
6. Cc1noc(C)c1Cn1cc(NC(=O)c2cc3c(cc2Br)OCCO3)cn1
7. Cc1noc(C)c1Cn1cc(NC(=O)c2cc(Cl)c3c(c2)OCCO3)cn1
8. COc1cccc(C(=O)Nc2cnn(Cc3c(C)noc3C)c2)c1O

6.25
5.06
5.85
6.15
5.07
6.52
7.00
5.54
